Examples of molecules with documented IC50 follow.
# EXPERIMENTAL SYSTEM: recombinant human PI3Kβ (6-His(p110-p85α)) (Homo sapiens (Human), UniProt P42338)
# Sequence (P42338 whole entry): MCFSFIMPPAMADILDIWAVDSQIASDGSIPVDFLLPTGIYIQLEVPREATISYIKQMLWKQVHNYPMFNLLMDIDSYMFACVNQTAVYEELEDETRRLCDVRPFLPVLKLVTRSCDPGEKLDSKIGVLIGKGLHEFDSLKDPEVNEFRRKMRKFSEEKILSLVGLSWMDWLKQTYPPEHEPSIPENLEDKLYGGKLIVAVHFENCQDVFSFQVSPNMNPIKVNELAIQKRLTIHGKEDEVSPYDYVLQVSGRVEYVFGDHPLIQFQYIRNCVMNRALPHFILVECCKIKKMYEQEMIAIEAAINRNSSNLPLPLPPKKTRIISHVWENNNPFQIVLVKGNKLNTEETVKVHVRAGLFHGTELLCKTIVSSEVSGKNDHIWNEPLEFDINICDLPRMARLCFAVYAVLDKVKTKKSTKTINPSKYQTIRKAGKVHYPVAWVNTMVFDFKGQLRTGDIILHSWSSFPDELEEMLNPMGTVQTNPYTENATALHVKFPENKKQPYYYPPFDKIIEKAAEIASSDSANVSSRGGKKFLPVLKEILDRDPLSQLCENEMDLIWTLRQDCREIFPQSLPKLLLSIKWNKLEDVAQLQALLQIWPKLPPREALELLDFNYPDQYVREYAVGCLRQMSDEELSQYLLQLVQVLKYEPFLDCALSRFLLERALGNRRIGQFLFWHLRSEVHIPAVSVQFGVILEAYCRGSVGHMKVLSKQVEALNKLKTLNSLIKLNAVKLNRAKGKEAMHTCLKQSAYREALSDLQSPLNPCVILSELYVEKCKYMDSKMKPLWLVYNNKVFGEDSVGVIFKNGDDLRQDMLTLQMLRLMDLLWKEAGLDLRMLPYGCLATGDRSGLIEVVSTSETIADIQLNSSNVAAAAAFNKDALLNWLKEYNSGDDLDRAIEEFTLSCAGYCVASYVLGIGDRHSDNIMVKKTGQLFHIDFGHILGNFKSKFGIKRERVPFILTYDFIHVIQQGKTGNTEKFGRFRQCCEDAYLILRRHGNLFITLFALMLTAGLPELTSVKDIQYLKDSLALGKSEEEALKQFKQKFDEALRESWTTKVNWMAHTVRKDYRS
# Sequence (P27986 whole entry partner): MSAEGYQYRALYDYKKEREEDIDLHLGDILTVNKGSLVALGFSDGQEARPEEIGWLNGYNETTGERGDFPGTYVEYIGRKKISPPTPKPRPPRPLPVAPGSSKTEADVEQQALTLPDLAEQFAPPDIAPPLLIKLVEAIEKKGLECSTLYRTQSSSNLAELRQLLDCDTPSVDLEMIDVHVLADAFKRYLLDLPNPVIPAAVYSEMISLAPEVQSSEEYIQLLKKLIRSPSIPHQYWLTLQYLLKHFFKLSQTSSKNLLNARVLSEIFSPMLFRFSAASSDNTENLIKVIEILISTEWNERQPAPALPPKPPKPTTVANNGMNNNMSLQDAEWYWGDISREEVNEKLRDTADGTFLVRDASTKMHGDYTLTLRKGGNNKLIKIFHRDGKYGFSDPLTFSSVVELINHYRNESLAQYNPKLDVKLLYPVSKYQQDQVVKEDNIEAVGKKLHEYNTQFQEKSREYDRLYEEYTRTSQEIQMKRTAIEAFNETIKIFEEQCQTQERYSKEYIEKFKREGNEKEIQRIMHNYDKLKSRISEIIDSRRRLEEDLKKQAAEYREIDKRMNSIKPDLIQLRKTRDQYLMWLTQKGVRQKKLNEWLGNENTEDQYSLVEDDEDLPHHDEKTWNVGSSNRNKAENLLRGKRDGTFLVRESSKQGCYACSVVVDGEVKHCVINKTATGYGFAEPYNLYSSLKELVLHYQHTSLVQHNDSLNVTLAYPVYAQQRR
# ASSAY EXPLANATION: Enzymatic activity assay for recombinant human PI3Kβ (ADP-Glo)
# RECORDED CONDITIONS: 1.2 nM PI3Kβ, 20 μM ATP, 80 μM DiC8-PIP2, ADP-Glo
Value expressed in nM; do not type the unit.

CNS(=O)(=O)c1cc(-c2sc(Nc3cccc(N4C[C@@H](C)NCC4=O)n3)nc2C)cc2c1C(=O)N([C@@H](C)C1CC1)C2 [Example 45]; 257
CNS(=O)(=O)c1cc(-c2sc(Nc3cccc(N4CCCOC4=O)n3)nc2C)cc2c1C(=O)N(C(C)(C)C)C2 [Example 38]; 65
CNS(=O)(=O)c1cc(-c2sc(Nc3cccc(N4C(=O)CC[C@H]4CO)n3)nc2C)cc2c1C(=O)N([C@@H](C)C1CC1)C2 [Example 57]; 85

For this molecule ( CNS(=O)(=O)c1cc(-c2sc(Nc3cccc(N4CCNC(C)(C)C4=O)n3)nc2C)cc2c1C(=O)N([C@@H](C)C1CC1)C2 [Example 47] ), measured IC50 is 824

For this molecule ( Cc1nc(Nc2cccc(N3CCCOC3=O)n2)sc1-c1cc2c(c(S(C)(=O)=O)c1)C(=O)N([C@@H](C)C1CC1)C2 [Example 8] ), measured IC50 is 324

----------
# EXPERIMENTAL SYSTEM: recombinant human PI3Kβ (6-His(p110-p85α)) (Homo sapiens (Human))
# ASSAY EXPLANATION: Enzymatic activity assay for recombinant human PI3Kβ (ADP-Glo)
# RECORDED CONDITIONS: 1.2 nM PI3Kβ, 20 μM ATP, 80 μM DiC8-PIP2, ADP-Glo
Examples of molecules with documented pIC50 follow.
Bear in mind: pIC50 is minus log10 of a mol/L concentration; give just that figure.

CNS(=O)(=O)c1cc(-c2sc(Nc3cccc(N4CCN(C)CC4=O)n3)nc2C)cc2c1C(=O)N([C@@H](C)C1CC1)C2; 6.48
Cc1nc(Nc2cccc(N3CCCC3=O)n2)sc1-c1cc2c(c(S(=O)(=O)NC3COC3)c1)C(=O)N([C@@H](C)C(F)(F)F)C2; 6.40

Then there is this molecule:
# value of pIC50, recombinant human PI3Kβ (6-His(p110-p85α)) (Homo sapiens (Human)), item CNS(=O)(=O)c1cc(-c2sc(Nc3cccc(N4CCNC4=O)n3)nc2C)cc2c1C(=O)N([C@@H](C)C(F)(F)F)C2 = 6.56

----------
# EXPERIMENTAL SYSTEM: recombinant human PI3Kγ ((aa144-1102)-6His) (Homo sapiens (Human), UniProt P48736)
# Sequence (P48736 144-1102): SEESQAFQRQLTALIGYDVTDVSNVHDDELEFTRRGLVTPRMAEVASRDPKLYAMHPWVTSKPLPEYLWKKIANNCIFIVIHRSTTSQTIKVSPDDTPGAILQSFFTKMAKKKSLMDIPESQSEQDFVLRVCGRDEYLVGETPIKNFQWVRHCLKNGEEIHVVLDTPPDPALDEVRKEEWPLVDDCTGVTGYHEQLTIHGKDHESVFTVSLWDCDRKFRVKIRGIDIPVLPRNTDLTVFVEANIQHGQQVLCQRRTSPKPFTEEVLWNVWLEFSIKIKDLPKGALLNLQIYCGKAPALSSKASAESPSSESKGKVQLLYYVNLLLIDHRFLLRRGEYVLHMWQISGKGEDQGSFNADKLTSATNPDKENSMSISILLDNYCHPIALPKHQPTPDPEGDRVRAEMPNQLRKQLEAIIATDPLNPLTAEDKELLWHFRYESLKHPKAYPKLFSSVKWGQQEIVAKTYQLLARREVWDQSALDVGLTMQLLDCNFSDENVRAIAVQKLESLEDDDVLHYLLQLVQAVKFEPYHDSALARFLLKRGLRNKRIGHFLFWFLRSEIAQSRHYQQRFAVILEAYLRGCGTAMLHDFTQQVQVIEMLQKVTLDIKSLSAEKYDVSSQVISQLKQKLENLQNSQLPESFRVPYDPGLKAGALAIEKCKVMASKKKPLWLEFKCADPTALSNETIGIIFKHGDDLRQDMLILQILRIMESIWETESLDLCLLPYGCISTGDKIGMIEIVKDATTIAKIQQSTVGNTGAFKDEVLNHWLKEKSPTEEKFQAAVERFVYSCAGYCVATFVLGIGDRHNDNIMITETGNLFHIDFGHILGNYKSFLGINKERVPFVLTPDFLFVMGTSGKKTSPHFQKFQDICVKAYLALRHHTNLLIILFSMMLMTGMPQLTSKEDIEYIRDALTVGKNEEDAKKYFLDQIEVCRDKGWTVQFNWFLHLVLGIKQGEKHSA
# ASSAY EXPLANATION: Enzymatic activity assay for recombinant human PI3Kγ (ADP-Glo)
# RECORDED CONDITIONS: 1.2 nM PI3Kγ, 20 μM ATP, 80 μM DiC8-PIP2, ADP-Glo
REPORTED METRIC: IC50

Cc1nc(Nc2cccc(N3CCNC3=O)n2)sc1-c1cc2c(c(S(=O)(=O)NC3COC3)c1)C(=O)N([C@@H](C)C1CC1)C2; 0.8 nM

For this compound ( Cc1nc(Nc2cccc(N3CCCOC3=O)n2)sc1-c1cc2c(c(S(=O)(=O)NC3COC3)c1)C(=O)N([C@@H](C)C1CC1)C2 ), measured IC50 is 1 nM

For this compound ( Cc1nc(Nc2cccc(N3CCNC3=O)n2)sc1-c1cc2c(c(S(=O)(=O)NC(C)C)c1)C(=O)N([C@@H](C)C(F)(F)F)C2 ), measured IC50 is 1.4 nM

For this compound ( Cc1nc(Nc2cccc(N3CCCC3=O)n2)sc1-c1cc2c(c(S(C)(=O)=O)c1)C(=O)N([C@@H](C)C1CC1)C2 ), measured IC50 is 0.9 nM

For this compound ( Cc1nc(Nc2cccc(N3CC[C@H](O)C3=O)n2)sc1-c1cc2c(c(S(=O)(=O)NC(C)C)c1)C(=O)N([C@@H](C)C(F)(F)F)C2 ), measured IC50 is 1.2 nM

For this compound ( CNS(=O)(=O)c1cc(-c2sc(Nc3cccc(N4CCOCC4=O)n3)nc2C)cc2c1C(=O)N([C@@H](C)C(C)(C)C)C2 ), measured IC50 is 1.4 nM

For this compound ( CC(=O)N(C)c1cccc(Nc2nc(C)c(-c3cc4c(c(S(C)(=O)=O)c3)C(=O)N([C@@H](C)C3CC3)C4)s2)n1 ), measured IC50 is 0.8 nM

For this compound ( CNS(=O)(=O)c1cc(-c2sc(Nc3cccc(N4CC[C@@H](O)C4=O)n3)nc2C)cc2c1C(=O)N([C@@H](C)C1CC1)C2 ), measured IC50 is 0.9 nM

For this compound ( Cc1nc(Nc2cccc(N3CCCC3=O)n2)sc1-c1cc2c(c(S(=O)(=O)NC3COC3)c1)C(=O)N([C@@H](C)C1CC1)C2 ), measured IC50 is 1.3 nM

For this compound ( CNS(=O)(=O)c1cc(-c2sc(Nc3cccc(N4CCN(C)CC4=O)n3)nc2C)cc2c1C(=O)N([C@@H](C)C1CC1)C2 ), measured IC50 is 1 nM

For this compound ( CNS(=O)(=O)c1cc(-c2sc(Nc3cccc(N4C(=O)CC[C@@H]4CO)n3)nc2C)cc2c1C(=O)N([C@@H](C)C1CC1)C2 ), measured IC50 is 1.2 nM

For this compound ( CNS(=O)(=O)c1cc(-c2sc(Nc3cccc(N4CCN(CCO)CC4=O)n3)nc2C)cc2c1C(=O)N([C@@H](C)C1CC1)C2 ), measured IC50 is 0.9 nM

For this compound ( Cc1nc(Nc2cccc(N3CCCOC3=O)n2)sc1-c1cc2c(c(S(C)(=O)=O)c1)C(=O)N([C@@H](C)C1CC1)C2 ), measured IC50 is 1.3 nM

For this compound ( Cc1nc(Nc2cccc(N3CCCCC3=O)n2)sc1-c1cc2c(c(S(C)(=O)=O)c1)C(=O)N([C@@H](C)C1CC1)C2 ), measured IC50 is 1 nM

----------
# EXPERIMENTAL SYSTEM: recombinant human PI3Kδ (6-His(p110-p85α)) (Homo sapiens (Human))
# Sequence (O00329 whole entry): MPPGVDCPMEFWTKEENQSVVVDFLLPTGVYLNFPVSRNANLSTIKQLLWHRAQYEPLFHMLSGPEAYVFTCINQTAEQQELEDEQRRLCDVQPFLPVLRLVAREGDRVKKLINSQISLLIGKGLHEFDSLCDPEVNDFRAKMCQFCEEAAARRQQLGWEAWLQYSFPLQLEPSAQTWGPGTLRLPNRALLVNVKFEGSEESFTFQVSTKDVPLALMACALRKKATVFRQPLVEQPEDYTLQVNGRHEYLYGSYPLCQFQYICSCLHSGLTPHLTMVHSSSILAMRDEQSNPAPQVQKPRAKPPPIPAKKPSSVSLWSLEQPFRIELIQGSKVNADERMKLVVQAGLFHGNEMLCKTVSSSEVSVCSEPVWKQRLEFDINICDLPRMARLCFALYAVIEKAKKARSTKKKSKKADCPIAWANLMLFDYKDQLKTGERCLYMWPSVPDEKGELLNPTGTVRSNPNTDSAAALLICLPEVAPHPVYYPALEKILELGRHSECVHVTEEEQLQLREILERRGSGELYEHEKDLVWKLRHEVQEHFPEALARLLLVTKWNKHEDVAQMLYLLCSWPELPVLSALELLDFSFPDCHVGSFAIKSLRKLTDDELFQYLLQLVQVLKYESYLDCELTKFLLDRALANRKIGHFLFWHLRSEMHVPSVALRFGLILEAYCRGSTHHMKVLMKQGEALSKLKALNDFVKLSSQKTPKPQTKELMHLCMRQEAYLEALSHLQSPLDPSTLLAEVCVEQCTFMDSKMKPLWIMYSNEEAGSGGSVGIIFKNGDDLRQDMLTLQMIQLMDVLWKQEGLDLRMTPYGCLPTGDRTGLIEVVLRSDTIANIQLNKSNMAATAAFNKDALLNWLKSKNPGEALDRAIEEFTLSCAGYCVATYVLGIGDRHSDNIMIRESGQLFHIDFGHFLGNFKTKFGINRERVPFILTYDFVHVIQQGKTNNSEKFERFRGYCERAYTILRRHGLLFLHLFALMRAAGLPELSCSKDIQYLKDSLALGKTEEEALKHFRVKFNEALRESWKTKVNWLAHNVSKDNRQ
# Sequence (P27986 whole entry partner): as the sequence (P27986 whole entry partner) above
# ASSAY EXPLANATION: Enzymatic activity assay for recombinant human PI3Kδ (ADP-Glo)
# RECORDED CONDITIONS: 0.6 nM PI3Kδ, 20 μM ATP, 80 μM DiC8-PIP2, ADP-Glo
Examples of molecules with documented pIC50 follow.
Bear in mind: pIC50 is minus log10 of a mol/L concentration; give just that figure.

CNS(=O)(=O)c1cc(-c2sc(Nc3cccc(N4CC(C)(C)NCC4=O)n3)nc2C)cc2c1C(=O)N([C@@H](C)C1CC1)C2; 9.15
CNS(=O)(=O)c1cc(-c2sc(Nc3cccc(N(C)C(=O)[C@@H](C)OC)n3)nc2C)cc2c1C(=O)N([C@@H](C)C1CC1)C2; 8.92
CNS(=O)(=O)c1cc(-c2sc(Nc3cccc(N4CCNCC4=O)n3)nc2C)cc2c1C(=O)N([C@@H](C)C1CC1)C2; 9.05
CNS(=O)(=O)c1cc(-c2sc(Nc3cccc(N4C(=O)CC[C@H]4CO)n3)nc2C)cc2c1C(=O)N([C@@H](C)C1CC1)C2; 9.15

Then there is this molecule:
For this molecule ( CNS(=O)(=O)c1cc(-c2sc(Nc3cccc(N(C)C(=O)[C@H](C)OC)n3)nc2C)cc2c1C(=O)N([C@@H](C)C1CC1)C2 ), measured pIC50 is 9.10

----------
Examples of compounds with documented pIC50 follow.
# EXPERIMENTAL SYSTEM: recombinant human PI3Kγ ((aa144-1102)-6His) (Homo sapiens (Human), UniProt P48736)
# ASSAY EXPLANATION: Enzymatic activity assay for recombinant human PI3Kγ (ADP-Glo)
# RECORDED CONDITIONS: 1.2 nM PI3Kγ, 20 μM ATP, 80 μM DiC8-PIP2, ADP-Glo
Bear in mind: pIC50 is minus log10 of a mol/L concentration; give just that figure.

CNS(=O)(=O)c1cc(-c2sc(Nc3cccc(N4C[C@H](C)NCC4=O)n3)nc2C)cc2c1C(=O)N([C@@H](C)C1CC1)C2 [Example 42]; 9.00
CCNS(=O)(=O)c1cc(-c2sc(Nc3cccc(N(C)C(=O)COC)n3)nc2C)cc2c1C(=O)N([C@@H](C)C1CC1)C2 [Example 26]; 8.96
CNS(=O)(=O)c1cc(-c2sc(Nc3cccc(N4CC(=O)N5CCC[C@H]5C4=O)n3)nc2C)cc2c1C(=O)N([C@@H](C)C1CC1)C2 [Example 23]; 8.89
CNS(=O)(=O)c1cc(-c2sc(Nc3cccc(N(C)C(=O)[C@@H](C)OC)n3)nc2C)cc2c1C(=O)N([C@@H](C)C1CC1)C2 [Example 15]; 9.00

Then there is this compound:
# value of pIC50, recombinant human PI3Kγ ((aa144-1102)-6His) (Homo sapiens (Human), UniProt P48736), item CNS(=O)(=O)c1cc(-c2sc(Nc3cccc(N4CCCC4=O)n3)nc2C)cc2c1C(=O)N([C@@H](C)C(F)(F)F)C2 [Example 25] = 8.96
